FYI, the data here is from paper PMC10498667.

# study system: Aβ42 (Homo sapiens, UniProt P05067)
# Construct: purchased Peptide Institute, Inc. (Osaka, Japan)
# Sequence (P05067 672-713 limits assumed): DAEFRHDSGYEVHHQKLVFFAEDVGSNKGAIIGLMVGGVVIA
# assay: Aβ42 aggregation inhibition experiments (gel/western blot, TEM)
# Format: biochemical
# test settings: Cu(II)–Aβ42; flavonoid 50 μM; 24 h
metric: morphology of resultant aggregates (TEM)

> print(dat)
                                   molecule                                    metric            value.measured
1  O=c1c(-c2ccccc2)coc2cc(O)c(O)c(O)c12 [4b, 5,6,7-trihydroxyisoflavone]  morphology of resultant aggregates (TEM)  chopped and thin fibrils
2  O=c1cc(-c2ccccc2)oc2cc(O)c(O)c(O)c12 [compound 4, baicalein]  morphology of resultant aggregates (TEM)  chopped and thin fibrils

====

# study system: Aβ40 (Homo sapiens)
# Construct: Ab40 ([…]-; purchased Peptide Institute, Inc. (Osaka, Japan)
# assay: ITC binding of 6 with Aβ40
# test settings: one-set-of-sites model, 10 °C, read-out: Binding affinity
metric: Kd

> print(dat)
                                test.smiles         study.system  value.measured
1  O=c1c(-c2ccc(O)c(O)c2)coc2cc(O)c(O)c(O)c12  Aβ40 (Homo sapiens)        ~20.5 µM

====

# assay: MTT cytotoxicity assay
# Type: cell-based
# test settings: human, human neuroblastoma 5Y cells; 100 μM flavonoid; 24 h; 5Y cells; relative to DMSO; read-out: cell viability
Parameter viability at 24 h, 100 μM: see the listing below.
metric: viability at 24 h, 100 μM

> print(dat)
                                   molecule  value.measured
1  O=c1cc(-c2ccccc2)oc2ccc(O)c(O)c12 [compound 3, 5,6-dihydroxyflavone]            ~50%
2  O=c1cc(-c2ccccc2)oc2c(Cl)c(O)c(O)c(O)c12 [compound 5, 8-chlorobaicalein]            ~60%
3  O=c1c(-c2ccccc2)coc2cc(O)c(O)c(O)c12 [4b, 5,6,7-trihydroxyisoflavone]            ~70%

====

# study system: Electric eel acetylcholinesterase (eeAChE) (Electrophorus electricus, UniProt O42275)
# Construct: purchased Invitrogen (AChE assay kit)
# Sequence (O42275 24-633): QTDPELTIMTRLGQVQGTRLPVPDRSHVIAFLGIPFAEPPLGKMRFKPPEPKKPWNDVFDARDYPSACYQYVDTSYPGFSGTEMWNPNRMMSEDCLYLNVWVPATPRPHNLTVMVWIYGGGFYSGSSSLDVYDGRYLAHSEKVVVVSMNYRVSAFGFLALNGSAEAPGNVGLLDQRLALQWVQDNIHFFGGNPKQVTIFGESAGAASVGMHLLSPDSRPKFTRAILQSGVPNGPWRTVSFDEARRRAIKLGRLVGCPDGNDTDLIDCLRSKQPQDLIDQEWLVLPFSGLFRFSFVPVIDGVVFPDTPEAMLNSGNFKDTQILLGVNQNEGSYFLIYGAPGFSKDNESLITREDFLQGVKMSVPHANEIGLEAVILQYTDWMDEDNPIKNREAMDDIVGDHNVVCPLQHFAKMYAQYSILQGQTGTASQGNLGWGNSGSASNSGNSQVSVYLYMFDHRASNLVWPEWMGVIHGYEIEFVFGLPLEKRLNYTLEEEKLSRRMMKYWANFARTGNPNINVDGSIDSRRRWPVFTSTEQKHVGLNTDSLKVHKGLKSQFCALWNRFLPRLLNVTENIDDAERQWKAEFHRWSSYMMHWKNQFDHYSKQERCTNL
# assay: Fluorometric AChE activity assay
# Type: biochemical
# test settings: fluorometric assay, eeAChE; read-out: IC50 for AChE inhibition
Parameter IC50: see the listing below.
metric: IC50 (µM)

> print(dat)
                                   compound  unit.of.measure  value.measured
1  O=c1cc(-c2ccccc2)oc2c(Cl)c(O)c(O)c(O)c12               µM            12.3
2  O=c1c(-c2ccccc2)coc2cc(O)c(O)c(O)c12 [4b, 5,6,7-trihydroxyisoflavone]               µM             1.4
3     COc1cc2oc(-c3ccccc3)cc(=O)c2c(OC)c1OC               µM            52.5
4  O=c1c(-c2ccc(O)c(O)c2)coc2cc(O)c(O)c(O)c12               µM            0.19
5  O=c1cc(-c2ccccc2)oc2ccc(O)c(O)c12 [compound 3, 5,6-dihydroxyflavone]               µM            4.51
